Test system: A498 renal
assay_name: NCI tumour cell line growth inhibition, 48 h
assay_readout: GI50

{"compound": "COc1cc2c3c(n(CCCNCCNCCN)c(=O)c2cc1OC)-c1cc2c(cc1C3=O)OCO2", "value_measured": "19100 nM"}
{"compound": "CS(=O)(=O)O[C@H]1C(=O)N(c2cc3c4ccccc4ccc3c3ccccc23)[C@@H]1c1ccccc1", "value_measured": "545 nM"}
{"compound": "N#Cc1c(-c2ccccc2)cc(-c2ccccc2)n(CCCC(=O)NO)c1=O", "value_measured": "788 nM"}
{"compound": "CC1(C)CN(c2cc(C(F)(F)F)cc3cncn23)CCC12NC(=O)NC2=O (stereo not given)", "value_measured": "16800 nM"}
{"compound": "Clc1cc(Cl)cc(-c2ccc(-c3ccc(/C=N/NC4=NCCN4)cc3)s2)c1", "value_measured": "1390 nM"}
